target: SIRT3 (human); test: ITC
The star is where a group is joined. CSCF3 = thiotrifluoroacetyl on lysine, FC(F)(F)C(=S)*; fluorescein = fluorescein label at the N-terminus
TEST READOUT: Kd (nM)
Number only, in nM; omit the unit.

Value of Kd reported for the binder fluorescein-LPKTRSGK(CSCF3)VMRR-OH is 900

Reference for the values: paper PMC3042044
